experimental_target: 3',5'-cyclic-AMP phosphodiesterase 4D (Homo sapiens, UniProt Q08499); note: assay procedure not described here
Sequence (Q08499 whole entry): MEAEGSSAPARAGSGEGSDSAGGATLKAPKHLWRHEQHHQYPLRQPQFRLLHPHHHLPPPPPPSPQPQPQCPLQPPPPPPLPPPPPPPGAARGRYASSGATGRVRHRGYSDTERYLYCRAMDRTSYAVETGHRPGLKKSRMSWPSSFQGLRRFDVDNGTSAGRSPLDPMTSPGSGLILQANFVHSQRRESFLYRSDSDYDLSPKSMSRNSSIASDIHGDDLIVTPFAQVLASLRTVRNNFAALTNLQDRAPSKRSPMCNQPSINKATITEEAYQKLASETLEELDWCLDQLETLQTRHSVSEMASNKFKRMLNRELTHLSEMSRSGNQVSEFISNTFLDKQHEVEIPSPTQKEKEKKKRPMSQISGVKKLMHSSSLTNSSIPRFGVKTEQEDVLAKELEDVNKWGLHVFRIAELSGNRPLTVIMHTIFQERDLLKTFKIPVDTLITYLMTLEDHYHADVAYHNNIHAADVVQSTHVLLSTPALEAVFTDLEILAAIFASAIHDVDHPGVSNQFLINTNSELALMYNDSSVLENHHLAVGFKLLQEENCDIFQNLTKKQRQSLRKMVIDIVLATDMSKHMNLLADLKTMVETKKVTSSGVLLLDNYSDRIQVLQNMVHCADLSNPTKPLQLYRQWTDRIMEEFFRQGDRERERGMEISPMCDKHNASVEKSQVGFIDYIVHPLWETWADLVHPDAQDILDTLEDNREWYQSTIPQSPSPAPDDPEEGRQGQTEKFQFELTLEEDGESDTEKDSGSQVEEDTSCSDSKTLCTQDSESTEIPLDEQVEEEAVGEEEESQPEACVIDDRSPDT
Format: functional
Provide the reported AC50 of each item.

Known results for compounds:
>  <compound>
CCc1cc2c(s1)-n1c(C)nnc1CN=C2c1ccccc1Cl [ETIZOLAM]

>  <experimental_target>
3',5'-cyclic-AMP phosphodiesterase 4D (Homo sapiens, UniProt Q08499); note: assay procedure not described here

>  <AC50>
19 µM

$$$$
>  <compound>
COc1cc2[nH]c(C)c(CCN3CCN(c4ccccc4)CC3)c2cc1OC [OXYPERTINE]

>  <experimental_target>
3',5'-cyclic-AMP phosphodiesterase 4D (Homo sapiens, UniProt Q08499); note: assay procedure not described here

>  <AC50>
9.8 µM

$$$$
>  <compound>
Clc1ccc(CCC(Cn2ccnc2)Sc2c(Cl)cccc2Cl)cc1 (stereo not drawn) [BUTOCONAZOLE]

>  <experimental_target>
3',5'-cyclic-AMP phosphodiesterase 4D (Homo sapiens, UniProt Q08499); note: assay procedure not described here

>  <AC50>
11 µM

$$$$
>  <compound>
Oc1cc(O)c(Cl)cn1

>  <experimental_target>
3',5'-cyclic-AMP phosphodiesterase 4D (Homo sapiens, UniProt Q08499); note: assay procedure not described here

>  <AC50>
> 30 µM

$$$$
>  <compound>
COc1ccc(CN2CCN(C(c3ccc(F)cc3)c3ccc(F)cc3)CC2)c(OC)c1OC [LOMERIZINE]

>  <experimental_target>
3',5'-cyclic-AMP phosphodiesterase 4D (Homo sapiens, UniProt Q08499); note: assay procedure not described here

>  <AC50>
> 30 µM

$$$$

Please look at the items below and tell me AC50 for each one, in order.
1. Cc1ccc(C)c(OCCCC(C)(C)C(=O)O)c1 [GEMFIBROZIL]
2. CCCc1nc2c(C)cc(-c3nc4ccccc4n3C)cc2n1Cc1ccc(-c2ccccc2C(=O)O)cc1
3. O=S1(=O)CCN(CN2CCS(=O)(=O)NC2)CN1 [TAUROLIDINE]
4. CC(C)(O/N=C(\C(=O)N[C@@H]1C(=O)N2C(C(=O)[O-])=C(C[n+]3ccccc3)CS[C@H]12)c1csc(N)n1)C(=O)O [CEFTAZIDIME]

> 30 µM
7.1 µM
> 30 µM
> 300 µM

Please look at the items below and tell me AC50 for each one, in order.
1. c1ccc(C2(N3CCCCC3)CCCCC2)cc1 [PHENCYCLIDINE]
2. CNCCc1ccc(OC(=O)C(C)C)c(OC(=O)C(C)C)c1 [IBOPAMINE]
3. CC(O)(CS(=O)(=O)c1ccc(F)cc1)C(=O)Nc1ccc(C#N)c(C(F)(F)F)c1 (stereo not drawn) [BICALUTAMIDE]
4. NS(=O)(=O)c1cc2c(cc1Cl)N=C(CSCc1ccccc1)NS2(=O)=O [BENZTHIAZIDE]
5. C[C@@H]1C[C@H]2[C@@H]3CCC4=CC(=O)C=C[C@]4(C)[C@@]3(F)[C@@H](O)C[C@]2(C)[C@@]1(O)C(=O)CO [DEXAMETHASONE]

["> 30 µM", "> 30 µM", "> 30 µM", "> 30 µM", "> 30 µM"]
